AC50 tested on Delta-type opioid receptor (Homo sapiens): recorded values; also: assay procedure not described here
Sequence (P41143 whole entry): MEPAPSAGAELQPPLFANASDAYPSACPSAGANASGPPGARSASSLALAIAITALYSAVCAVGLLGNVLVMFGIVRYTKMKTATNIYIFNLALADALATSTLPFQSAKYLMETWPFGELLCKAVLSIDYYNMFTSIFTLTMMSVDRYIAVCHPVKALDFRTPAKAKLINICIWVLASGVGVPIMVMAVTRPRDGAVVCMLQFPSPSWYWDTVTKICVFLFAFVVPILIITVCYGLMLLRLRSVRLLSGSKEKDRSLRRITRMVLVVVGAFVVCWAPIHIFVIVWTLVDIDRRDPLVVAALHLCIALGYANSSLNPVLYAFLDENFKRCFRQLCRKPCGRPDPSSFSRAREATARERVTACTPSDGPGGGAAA
property-measured: AC50

compound=N#C[C@@H]1CCCN1C(=O)CNC12CC3CC(CC(O)(C3)C1)C2 measurement_target="Delta-type opioid receptor (Homo sapiens)" property_measured=AC50 reported_result="> 30 µM"
compound="CCC(C)(Oc1ccc(C2(c3ccc(OC(C)(CC)C(=O)O)cc3)CCCCC2)cc1)C(=O)O (stereo not drawn) [CLINOFIBRATE]" measurement_target="Delta-type opioid receptor (Homo sapiens)" property_measured=AC50 reported_result="> 30 µM"
compound=CCn1cc(C(=O)O)c(=O)c2cc(F)c(N3CCNCC3)nc21 measurement_target="Delta-type opioid receptor (Homo sapiens)" property_measured=AC50 reported_result="> 10 µM"
compound="N=C(N)NCCCCCCC(=O)NC(O)C(=O)NCCCCNCCCN (stereo not drawn)" measurement_target="Delta-type opioid receptor (Homo sapiens)" property_measured=AC50 reported_result="> 30 µM"
compound="C=CC(N)CCC(=O)O (stereo not drawn)" measurement_target="Delta-type opioid receptor (Homo sapiens)" property_measured=AC50 reported_result="> 30 µM"
compound=CC(=O)OCC[N+](C)(C)C measurement_target="Delta-type opioid receptor (Homo sapiens)" property_measured=AC50 reported_result="> 10 µM"
compound=Nc1ccc(C(=O)O)c(O)c1 measurement_target="Delta-type opioid receptor (Homo sapiens)" property_measured=AC50 reported_result="> 30 µM"
compound=CCCCC1(CC)C(=O)NC(=O)NC1=O measurement_target="Delta-type opioid receptor (Homo sapiens)" property_measured=AC50 reported_result="> 30 µM"
compound=Clc1ccc2c(c1)C(c1ccccc1)=NCc1nncn1-2 measurement_target="Delta-type opioid receptor (Homo sapiens)" property_measured=AC50 reported_result="> 30 µM"
compound=CC(=N)N1CC[C@H](SC2=C(C(=O)O)N3C(=O)[C@H]([C@@H](C)O)[C@H]3C2)C1 measurement_target="Delta-type opioid receptor (Homo sapiens)" property_measured=AC50 reported_result="290 µM"
compound=Cc1ccc2c(-c3ccccc3)nc(=O)n(C(C)C)c2c1 measurement_target="Delta-type opioid receptor (Homo sapiens)" property_measured=AC50 reported_result="30 µM"
compound=COc1ccc(/C=C/C(=O)Nc2ccccc2C(=O)O)cc1OC measurement_target="Delta-type opioid receptor (Homo sapiens)" property_measured=AC50 reported_result="> 30 µM"
compound=COc1ccc2c(c1)[C@]13CCCC[C@@H]1[C@H](C2)N(C)CC3 measurement_target="Delta-type opioid receptor (Homo sapiens)" property_measured=AC50 reported_result="> 10 µM"
compound=O=C(O)c1ccccc1Nc1cccc(C(F)(F)F)c1 measurement_target="Delta-type opioid receptor (Homo sapiens)" property_measured=AC50 reported_result="> 30 µM"
compound=CCCCC[C@H](O)/C=C/[C@H]1[C@H](O)CC(=O)[C@@H]1C/C=C\CCCC(=O)O measurement_target="Delta-type opioid receptor (Homo sapiens)" property_measured=AC50 reported_result="> 30 µM"
compound="COc1ccnc(C[S+]([O-])c2nc3ccc(OC(F)F)cc3[nH]2)c1OC (stereo not drawn)" measurement_target="Delta-type opioid receptor (Homo sapiens)" property_measured=AC50 reported_result="> 30 µM"
compound="CC[N+]1(C)CCCC(OC(=O)C(O)(c2ccccc2)c2ccccc2)C1 (stereo not drawn) [PIPENZOLATE]" measurement_target="Delta-type opioid receptor (Homo sapiens)" property_measured=AC50 reported_result="> 30 µM"
compound="CC1(C)C(/C=C/C=C/C=C/C=C2\\N(CCCCS(=O)(=O)O)c3ccc4ccccc4c3C2(C)C)=[N+](CCCCS(=O)(=O)[O-])c2ccc3ccccc3c21 [INDOCYANINE GREEN ACID FORM]" measurement_target="Delta-type opioid receptor (Homo sapiens)" property_measured=AC50 reported_result="9.7 µM"
compound=CC(C)C[C@H](CN)CC(=O)O measurement_target="Delta-type opioid receptor (Homo sapiens)" property_measured=AC50 reported_result="> 30 µM"
compound=CNCCCC1c2ccccc2C=Cc2ccccc21 measurement_target="Delta-type opioid receptor (Homo sapiens)" property_measured=AC50 reported_result="> 30 µM"
compound="CC(C)OC(=O)C(C(=O)OC(C)C)=C1SC=CS1 [MALOTILATE]" measurement_target="Delta-type opioid receptor (Homo sapiens)" property_measured=AC50 reported_result="> 30 µM"
compound=O=C(O)c1cc(O)c2c3nc4ccccc4oc-3cc(=O)c2n1 measurement_target="Delta-type opioid receptor (Homo sapiens)" property_measured=AC50 reported_result="2.2 µM"
compound="COc1c(O[C@@H]2O[C@H](CO)[C@@H](O)[C@H](O)[C@H]2O)cc2c(c1OC)-c1ccc(SC)c(=O)cc1[C@@H](NC(C)=O)CC2 [THIOCOLCHICOSIDE]" measurement_target="Delta-type opioid receptor (Homo sapiens)" property_measured=AC50 reported_result="> 30 µM"
compound=COc1cccc2c1C(=O)c1c(O)c3c(c(O)c1C2=O)C[C@@](O)(C(C)=O)C[C@@H]3O[C@H]1C[C@H](N)[C@H](O)[C@H](C)O1 measurement_target="Delta-type opioid receptor (Homo sapiens)" property_measured=AC50 reported_result="16.2 µM"
compound="CC1(C)O[C@@H]2[C@@H](CO[C@@]3(COS(N)(=O)=O)OC(C)(C)O[C@@H]23)O1 [TOPIRAMATE]" measurement_target="Delta-type opioid receptor (Homo sapiens)" property_measured=AC50 reported_result="> 10 µM"
compound=CC(C)(C)NC[C@H](O)COc1nsnc1N1CCOCC1 measurement_target="Delta-type opioid receptor (Homo sapiens)" property_measured=AC50 reported_result="> 30 µM"
compound="NS(=O)(=O)c1cc2c(cc1C(F)(F)F)NC(Cc1ccccc1)NS2(=O)=O (stereo not drawn) [BENDROFLUMETHIAZIDE]" measurement_target="Delta-type opioid receptor (Homo sapiens)" property_measured=AC50 reported_result="> 30 µM"
compound=[H]/N=C(\N/C(=N/[H])NCCCCCCNC(=N)NC(=N)Nc1ccc(Cl)cc1)Nc1ccc(Cl)cc1 measurement_target="Delta-type opioid receptor (Homo sapiens)" property_measured=AC50 reported_result="> 10 µM"
